molecular target: human secretin receptor (hSCTR) (human, UniProt P47872 23-440); test: cell-based or functional assay
Sequence (P47872 23-440): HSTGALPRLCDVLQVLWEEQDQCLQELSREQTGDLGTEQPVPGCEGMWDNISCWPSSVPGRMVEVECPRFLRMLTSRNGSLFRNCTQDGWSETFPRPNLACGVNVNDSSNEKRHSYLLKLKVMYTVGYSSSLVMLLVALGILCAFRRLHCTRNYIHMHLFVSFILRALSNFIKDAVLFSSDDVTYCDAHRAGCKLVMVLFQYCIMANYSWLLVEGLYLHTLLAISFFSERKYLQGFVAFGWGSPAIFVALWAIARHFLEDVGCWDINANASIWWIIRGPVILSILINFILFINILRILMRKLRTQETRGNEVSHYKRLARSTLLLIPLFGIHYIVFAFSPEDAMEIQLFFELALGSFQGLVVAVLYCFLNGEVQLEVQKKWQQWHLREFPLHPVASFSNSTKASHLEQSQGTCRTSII
Numbered stars: 1 amine (or outer) side, 2 acyl side, 3 side chain; on linkers, the order of the positions; unused ones are H or OH. Square brackets hold non-standard residues; d marks the D form. Side chains are listed from the residue outwards. Ends that are not written are not given here. * marks the point of attachment. C20 diacid = O=C(O)CCCCCCCCCCCCCCCCCCC(=O)*; γGlu = O=C(O)[C@H](CCC(=O)[*:2])N[*:1]; AEEA = NCCOCCOCC(=O)O; Aib = CC(C)(N)C(=O)O
MEASURED ENDPOINT: pEC50 hSCTR

Example results:
BINDER | pEC50 hSCTR
H[Aib]EGTFTSDVSFLK([AEEA-AEEA-γGlu-C20 diacid])ETAATQRFLEHLV-NH2 [SEQ ID NO: 70] | 7 -log M
H[Aib]LGTFTSDVSYLK([AEEA-AEEA-γGlu-C20 diacid])EEA[Aib]LQRFLEHLV-NH2 [SEQ ID NO: 170] | 4.6 -log M
H[Aib]EGTFTSDVSYLK([AEEA-AEEA-γGlu-C20 diacid])EFAASQRFLEHLV-NH2 [SEQ ID NO: 66] | 5.5 -log M
HAEGTFTSDVSYLK([AEEA-AEEA-γGlu-C20 diacid])EEA[Aib]LQRFLEHLV-NH2 [SEQ ID NO: 166] | 6.5 -log M

Kindly review the next binder as well.
Form field: reported pEC50 hSCTR of H[Aib]EGTFTSDVSILK([AEEA-AEEA-γGlu-C20 diacid])EEA[Aib]LQRFLEHLV-NH2 [SEQ ID NO: 172]
7.7 -log M
